// reported IC50 for each item listed
# target.system: human factor XIa (Homo sapiens, UniProt P03951)
# Sequence (P03951 388-625 limits assumed): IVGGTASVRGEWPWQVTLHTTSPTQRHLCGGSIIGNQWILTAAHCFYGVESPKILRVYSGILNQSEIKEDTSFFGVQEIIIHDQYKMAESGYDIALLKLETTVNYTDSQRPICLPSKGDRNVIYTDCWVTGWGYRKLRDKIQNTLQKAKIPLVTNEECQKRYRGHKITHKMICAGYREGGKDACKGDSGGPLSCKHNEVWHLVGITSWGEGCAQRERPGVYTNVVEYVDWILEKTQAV
# Sequence (P03951 19-387 partner limits assumed): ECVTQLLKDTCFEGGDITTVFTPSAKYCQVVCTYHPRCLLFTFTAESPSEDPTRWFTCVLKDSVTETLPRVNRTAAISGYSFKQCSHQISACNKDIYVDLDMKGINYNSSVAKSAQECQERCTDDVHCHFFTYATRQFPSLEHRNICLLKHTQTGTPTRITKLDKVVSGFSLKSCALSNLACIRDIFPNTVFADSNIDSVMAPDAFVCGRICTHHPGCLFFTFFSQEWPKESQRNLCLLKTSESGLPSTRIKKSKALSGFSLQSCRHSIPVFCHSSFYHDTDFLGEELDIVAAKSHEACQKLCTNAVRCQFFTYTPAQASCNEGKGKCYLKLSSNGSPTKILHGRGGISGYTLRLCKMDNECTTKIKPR
Structures can show the parent of a compound that is named as a salt.
experimental.readout: IC50

Cc1cc(C(=O)NC2CCC(N(C)C)CC2)ccc1-c1ccc(C[C@H](NC(=O)[C@H]2CC[C@H](CN)CC2)C(=O)Nc2ccc(-c3nnc(C(F)(F)C(F)(F)C(F)(F)C(=O)O)[nH]3)cc2)cc1 (stereo partly shown) [Example 148, hydrochloride] = 1 nM
COCCOCCOCCOCCNC(=O)c1ccc(-c2ccc(C[C@H](NC(=O)[C@H]3CC[C@H](CN)CC3)C(=O)Nc3ccc(-c4nn[nH]n4)cc3)cc2)c(Cl)c1 [Example 26, hydrochloride] = 2.4 nM
Cc1cc(C(=O)NC2CCN(C)CC2)ccc1-c1ccc(C[C@H](NC(=O)[C@H]2CC[C@H](CN)CC2)C(=O)Nc2ccc(-c3nc(C(F)(F)C(F)(F)C(=O)O)n[nH]3)cc2)cc1 [Example 100, hydrochloride] = 2.2 nM
Cc1cc(C(=O)NC2CCC2)ccc1-c1ccc(C[C@H](NC(=O)[C@H]2CC[C@H](CN)CC2)C(=O)Nc2ccc3c(=O)[nH][nH]c3c2)cc1 [Example 162, hydrochloride] = 1.8 nM
Cc1cc(C(=O)N[C@H]2CCCN(C)C2)ccc1-c1ccc(C[C@H](NC(=O)[C@H]2CC[C@H](CN)CC2)C(=O)Nc2ccc(-c3nn[nH]n3)cc2)cc1 [Example 73, hydrochloride] = 3.4 nM
Cc1cc(C(=O)NC2CCCNC2=O)ccc1-c1ccc(C[C@H](NC(=O)[C@H]2CC[C@H](CN)CC2)C(=O)Nc2ccc(-c3nc(C(F)(F)C(F)(F)C(F)(F)F)n[nH]3)cc2)cc1 (stereo partly shown) [Example 88, hydrochloride] = 2.1 nM
Cc1cc(C(=O)NCCO)ccc1-c1ccc(C[C@H](NC(=O)[C@H]2CC[C@H](CN)CC2)C(=O)Nc2ccc3cn[nH]c3c2)cc1 [Example 17, hydrochloride] = 6.1 nM
Cc1cc(C(=O)N2CCC3CNC(=O)C32)ccc1-c1ccc(C[C@H](NC(=O)[C@H]2CC[C@H](CN)CC2)C(=O)Nc2ccc3cn[nH]c3c2)cc1 (stereo partly shown) [Example 163, hydrochloride] = 10 nM
Cc1cc(C(=O)NC2CCC(N(C)C)CC2)ccc1-c1ccc(C[C@H](NC(=O)[C@H]2CC[C@H](CN)CC2)C(=O)Nc2ccc3c(=O)[nH][nH]c3c2)cc1 (stereo partly shown) [Example 68, hydrochloride] = 8.3 nM
Cc1cc(C(=O)N[C@@H]2C[C@@H](CO)NC2=O)ccc1-c1ccc(C[C@H](NC(=O)[C@H]2CC[C@H](CN)CC2)C(=O)Nc2ccc(-c3nc(C(F)(F)C(F)(F)C(=O)O)n[nH]3)cc2)cc1 [Example 106, hydrochloride] = 1.1 nM
